B1: NEK8 (parent)
chain: VTIKHVACGDFFTACLTDRGIIMT

- Variants of: B1
- procedure.details: protein stability index of a GFP-peptide fusion (GPS, HEK-293T) (PSI 1-6); higher = more stable;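 note: lentivirally expressed fusions sorted by FACS into six bins by GFP to DsRed ratio, PSI derived from sequencing read proportions per bin multiplied by bin number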
- condition.parameters: c terminus: a fixed tail appended
value.kind: protein stability index

[[record]]
variant_id = "H5R"
value_kind = "protein stability index"
reading = 3.65

[[record]]
variant_id = "H5I"
value_kind = "protein stability index"
reading = 4.16

[[record]]
variant_id = "C8I"
value_kind = "protein stability index"
reading = 2.51

[[record]]
variant_id = "T2K"
value_kind = "protein stability index"
reading = 2.06

[[record]]
variant_id = "C8R"
value_kind = "protein stability index"
reading = 3.18

[[record]]
variant_id = "C8W"
value_kind = "protein stability index"
reading = 2.41

[[record]]
variant_id = "V6Y"
value_kind = "protein stability index"
reading = 1.72

[[record]]
variant_id = "V6T"
value_kind = "protein stability index"
reading = 2.61

[[record]]
variant_id = "G9I"
value_kind = "protein stability index"
reading = 3.19

[[record]]
variant_id = "H5K"
value_kind = "protein stability index"
reading = 1.19

[[record]]
variant_id = "G9S"
value_kind = "protein stability index"
reading = 3.21

[[record]]
variant_id = "T2P"
value_kind = "protein stability index"
reading = 3.12

[[record]]
variant_id = "C8N"
value_kind = "protein stability index"
reading = 3.4

[[record]]
variant_id = "I3G"
value_kind = "protein stability index"
reading = 2.58

[[record]]
variant_id = "K4W"
value_kind = "protein stability index"
reading = 3.87

[[record]]
variant_id = "V6A"
value_kind = "protein stability index"
reading = 2.86

[[record]]
variant_id = "G9A"
value_kind = "protein stability index"
reading = 2.32

[[record]]
variant_id = "C8V"
value_kind = "protein stability index"
reading = 2.48

[[record]]
variant_id = "A7D"
value_kind = "protein stability index"
reading = 2.43

[[record]]
variant_id = "A7C"
value_kind = "protein stability index"
reading = 1.98

[[record]]
variant_id = "K4I"
value_kind = "protein stability index"
reading = 2.27

[[record]]
variant_id = "V6E"
value_kind = "protein stability index"
reading = 3.14

[[record]]
variant_id = "K4L"
value_kind = "protein stability index"
reading = 3.2

[[record]]
variant_id = "V1G"
value_kind = "protein stability index"
reading = 3.39

[[record]]
variant_id = "H5P"
value_kind = "protein stability index"
reading = 3.52

[[record]]
variant_id = "V6N"
value_kind = "protein stability index"
reading = 3.92

[[record]]
variant_id = "V6D"
value_kind = "protein stability index"
reading = 1.35

[[record]]
variant_id = "T2R"
value_kind = "protein stability index"
reading = 2.24

[[record]]
variant_id = "T2F"
value_kind = "protein stability index"
reading = 3.64

[[record]]
variant_id = "A7K"
value_kind = "protein stability index"
reading = 3.25

[[record]]
variant_id = "I3E"
value_kind = "protein stability index"
reading = 2.6

[[record]]
variant_id = "I3T"
value_kind = "protein stability index"
reading = 3.18

[[record]]
variant_id = "V1M"
value_kind = "protein stability index"
reading = 3.97

[[record]]
variant_id = "G9H"
value_kind = "protein stability index"
reading = 2.74

[[record]]
variant_id = "H5L"
value_kind = "protein stability index"
reading = 1.99

[[record]]
variant_id = "A7S"
value_kind = "protein stability index"
reading = 1.57

[[record]]
variant_id = "C8Q"
value_kind = "protein stability index"
reading = 3.4

[[record]]
variant_id = "V1C"
value_kind = "protein stability index"
reading = 2.23

[[record]]
variant_id = "H5D"
value_kind = "protein stability index"
reading = 3.02

[[record]]
variant_id = "C8E"
value_kind = "protein stability index"
reading = 3.57

[[record]]
variant_id = "K4R"
value_kind = "protein stability index"
reading = 2.47

[[record]]
variant_id = "T2W"
value_kind = "protein stability index"
reading = 2.38

[[record]]
variant_id = "H5F"
value_kind = "protein stability index"
reading = 2.88

[[record]]
variant_id = "G9M"
value_kind = "protein stability index"
reading = 3.93

[[record]]
variant_id = "V1R"
value_kind = "protein stability index"
reading = 2.44

[[record]]
variant_id = "H5S"
value_kind = "protein stability index"
reading = 3.48

